Biological target: T1, human SIRPγ on human CD3+ T-cells (human, UniProt Q9P1W8 29-387)
T1 construct: whole, on cells
T1 sequence (Q9P1W8 29-387): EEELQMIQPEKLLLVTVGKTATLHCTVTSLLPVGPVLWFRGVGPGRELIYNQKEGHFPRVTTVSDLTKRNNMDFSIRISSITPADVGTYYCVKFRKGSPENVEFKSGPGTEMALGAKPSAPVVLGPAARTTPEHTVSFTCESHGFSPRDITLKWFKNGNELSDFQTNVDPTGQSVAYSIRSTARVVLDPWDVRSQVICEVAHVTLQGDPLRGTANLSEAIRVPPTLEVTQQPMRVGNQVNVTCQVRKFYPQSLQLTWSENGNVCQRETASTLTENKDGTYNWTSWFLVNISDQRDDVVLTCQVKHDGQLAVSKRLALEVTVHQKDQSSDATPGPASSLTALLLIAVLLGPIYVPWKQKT
Assay: flow cytometry, whole blood, CD3+ T-cells, donor #3
OBSERVABLE: EC50 (µg/mL)
Report the figure in µg/mL without appending any unit label.

{"columns": ["BINDER", "UNITS_LABEL", "EC50"],
 "data": [
  ["AB115-LALA (AB115 human IgG1-kappa, LALA) (antibody, V domains shown) VH: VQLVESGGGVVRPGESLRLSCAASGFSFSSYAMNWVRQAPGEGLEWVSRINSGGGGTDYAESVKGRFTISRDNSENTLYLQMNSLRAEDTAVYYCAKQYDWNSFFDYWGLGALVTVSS VL: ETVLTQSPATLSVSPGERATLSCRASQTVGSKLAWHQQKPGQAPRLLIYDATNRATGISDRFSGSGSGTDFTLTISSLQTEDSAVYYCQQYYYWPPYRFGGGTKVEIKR", "µg/mL", 0.1],
  ["AB119-LALA (AB119 human IgG1-kappa, LALA) (antibody, V domains shown) VH: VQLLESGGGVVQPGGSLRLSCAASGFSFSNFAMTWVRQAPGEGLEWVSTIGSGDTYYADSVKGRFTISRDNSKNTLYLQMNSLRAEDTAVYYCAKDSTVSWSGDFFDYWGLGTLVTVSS VL: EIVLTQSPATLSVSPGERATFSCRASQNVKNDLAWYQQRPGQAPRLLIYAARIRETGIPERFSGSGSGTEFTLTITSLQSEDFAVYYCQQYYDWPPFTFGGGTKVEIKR", "µg/mL", 0.005],
  ["29AM4-5-LALA (IgG1) (antibody, V domains shown, human IgG1 LALA, kappa; also called 29AM4-5huIgG1LALA) VH: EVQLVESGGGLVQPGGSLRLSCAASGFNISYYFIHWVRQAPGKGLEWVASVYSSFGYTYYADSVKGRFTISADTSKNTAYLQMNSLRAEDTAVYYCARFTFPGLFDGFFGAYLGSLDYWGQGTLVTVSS VL: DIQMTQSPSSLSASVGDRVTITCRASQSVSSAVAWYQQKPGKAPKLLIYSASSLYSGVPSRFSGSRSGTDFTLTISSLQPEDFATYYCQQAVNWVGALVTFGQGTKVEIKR", "µg/mL", 0.12]
]}

IN: Report EC50, nothing else, for this binder: AB25-LALA (AB25 humanized IgG1-kappa, LALA) (antibody, V domains shown) VH: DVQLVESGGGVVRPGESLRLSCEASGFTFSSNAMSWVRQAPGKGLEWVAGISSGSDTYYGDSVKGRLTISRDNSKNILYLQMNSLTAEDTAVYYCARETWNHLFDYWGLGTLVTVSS VL: SYELTQPPSVSVSPGQTARITCSGGSYSSYYYAWYQQKPGQAPVTLIYSDDKRPSNIPERFSGSSSGTTVTLTISGVQAEDEADYYCGGYDQSSYTNPFGGGTKLTVLR
OUT: 0.03
